- assayed.target: Ba/F3-FL-EGFR-del19/T790M (Homo sapiens, UniProt P00533, DEL746-750/T790M, cells depend on it)
- Sequence (P00533 with tags, fused parts or gaps DEL746-750/T790M): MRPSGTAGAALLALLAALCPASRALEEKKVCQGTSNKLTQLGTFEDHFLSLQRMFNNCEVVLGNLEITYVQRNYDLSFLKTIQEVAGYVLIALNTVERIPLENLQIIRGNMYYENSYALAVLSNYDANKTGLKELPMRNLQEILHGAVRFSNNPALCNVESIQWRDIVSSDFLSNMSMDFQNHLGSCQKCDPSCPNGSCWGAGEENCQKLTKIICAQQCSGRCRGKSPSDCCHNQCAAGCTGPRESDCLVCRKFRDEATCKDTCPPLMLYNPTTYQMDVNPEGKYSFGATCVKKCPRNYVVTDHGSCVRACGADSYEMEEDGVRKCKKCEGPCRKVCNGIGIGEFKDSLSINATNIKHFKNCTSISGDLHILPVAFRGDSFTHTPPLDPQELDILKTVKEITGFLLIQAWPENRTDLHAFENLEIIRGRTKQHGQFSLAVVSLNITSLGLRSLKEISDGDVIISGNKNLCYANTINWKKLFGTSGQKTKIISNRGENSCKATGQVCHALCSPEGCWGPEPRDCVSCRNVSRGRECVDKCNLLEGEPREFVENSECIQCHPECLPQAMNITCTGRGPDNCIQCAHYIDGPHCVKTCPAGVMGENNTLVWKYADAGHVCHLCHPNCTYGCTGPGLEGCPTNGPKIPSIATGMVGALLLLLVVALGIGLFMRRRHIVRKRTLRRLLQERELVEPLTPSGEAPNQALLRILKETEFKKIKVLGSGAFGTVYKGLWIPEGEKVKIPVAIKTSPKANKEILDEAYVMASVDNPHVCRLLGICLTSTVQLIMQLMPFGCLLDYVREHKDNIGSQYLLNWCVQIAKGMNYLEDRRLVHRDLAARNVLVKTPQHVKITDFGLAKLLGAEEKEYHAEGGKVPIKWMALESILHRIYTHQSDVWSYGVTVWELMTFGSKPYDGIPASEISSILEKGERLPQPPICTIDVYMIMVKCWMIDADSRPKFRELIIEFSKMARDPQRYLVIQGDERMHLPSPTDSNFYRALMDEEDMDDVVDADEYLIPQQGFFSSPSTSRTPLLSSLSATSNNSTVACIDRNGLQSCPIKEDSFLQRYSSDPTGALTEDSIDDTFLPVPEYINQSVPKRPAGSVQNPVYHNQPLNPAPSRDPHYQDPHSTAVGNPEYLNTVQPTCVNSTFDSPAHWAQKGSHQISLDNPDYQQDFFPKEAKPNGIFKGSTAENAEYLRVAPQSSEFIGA
- experiment: CellTiter-Glo proliferation, Ba/F3-FL-EGFR-del19/T790M
- condition.parameters: read-out: Ba/F3-FL-EGFR-del19/T790M IC50/nM, 72 hours
property.label: GI50 (nM)

Some molecules with known GI50 results, for comparison:
Request the reported GI50 associated with CC(C)c1ccc(N2C[C@H](CS(C)(=O)=O)[C@H]2C)c2cnc(Nc3ccnc(-c4cnn(S(=O)(=O)C5CC5)c4)n3)cc12 [Compound H12] 5.1

Can you look up the measured GI50 of CC(C)c1ccc(N2CC(N(C)S(C)(=O)=O)C2)c2cnc(Nc3ccnc(N4CC[C@@H](O)[C@@H](F)C4)n3)cc12 [Compound P39a] for me? 4.4

// query GI50 value for entry CC(C)c1ccc(N2C[C@H](N(C)S(C)(=O)=O)[C@H]2C)c2cnc(Nc3ccnc(N4CC[C@@H](O)[C@@H](F)C4)n3)cc12 [Compound P41a] 3.2

A = CC(C)c1ccc(N2C[C@H](N(C)S(C)(=O)=O)[C@H]2C)c2cnc(Nc3ccnc(N4CC[C@H](O)[C@H](F)C4)n3)cc12 [Compound P41b]
B = CC(C)c1ccc(N2C[C@H](N(C)S(C)(=O)=O)[C@H]2C)c2cnc(Nc3ccnc(-c4cnn(S(=O)(=O)C5CC5)c4)n3)cc12 [Compound H23]
C = CC(C)c1ccc(N2C[C@H](CS(C)(=O)=O)[C@H]2C)c2cnc(Nc3ccnc(-c4cnn(S(C)(=O)=O)c4)n3)cc12 [Compound H30]
Put the items in order so that reported GI50 rises from first to last. // respond by listing labels in the order requested B, A, C
(B: 0.3 nM, A: 2.3 nM, C: 5.1 nM)

---

- assayed.target: EGFR (L858R) (Homo sapiens, UniProt P00533, L858R)
- Sequence (P00533 25-1210 L858R): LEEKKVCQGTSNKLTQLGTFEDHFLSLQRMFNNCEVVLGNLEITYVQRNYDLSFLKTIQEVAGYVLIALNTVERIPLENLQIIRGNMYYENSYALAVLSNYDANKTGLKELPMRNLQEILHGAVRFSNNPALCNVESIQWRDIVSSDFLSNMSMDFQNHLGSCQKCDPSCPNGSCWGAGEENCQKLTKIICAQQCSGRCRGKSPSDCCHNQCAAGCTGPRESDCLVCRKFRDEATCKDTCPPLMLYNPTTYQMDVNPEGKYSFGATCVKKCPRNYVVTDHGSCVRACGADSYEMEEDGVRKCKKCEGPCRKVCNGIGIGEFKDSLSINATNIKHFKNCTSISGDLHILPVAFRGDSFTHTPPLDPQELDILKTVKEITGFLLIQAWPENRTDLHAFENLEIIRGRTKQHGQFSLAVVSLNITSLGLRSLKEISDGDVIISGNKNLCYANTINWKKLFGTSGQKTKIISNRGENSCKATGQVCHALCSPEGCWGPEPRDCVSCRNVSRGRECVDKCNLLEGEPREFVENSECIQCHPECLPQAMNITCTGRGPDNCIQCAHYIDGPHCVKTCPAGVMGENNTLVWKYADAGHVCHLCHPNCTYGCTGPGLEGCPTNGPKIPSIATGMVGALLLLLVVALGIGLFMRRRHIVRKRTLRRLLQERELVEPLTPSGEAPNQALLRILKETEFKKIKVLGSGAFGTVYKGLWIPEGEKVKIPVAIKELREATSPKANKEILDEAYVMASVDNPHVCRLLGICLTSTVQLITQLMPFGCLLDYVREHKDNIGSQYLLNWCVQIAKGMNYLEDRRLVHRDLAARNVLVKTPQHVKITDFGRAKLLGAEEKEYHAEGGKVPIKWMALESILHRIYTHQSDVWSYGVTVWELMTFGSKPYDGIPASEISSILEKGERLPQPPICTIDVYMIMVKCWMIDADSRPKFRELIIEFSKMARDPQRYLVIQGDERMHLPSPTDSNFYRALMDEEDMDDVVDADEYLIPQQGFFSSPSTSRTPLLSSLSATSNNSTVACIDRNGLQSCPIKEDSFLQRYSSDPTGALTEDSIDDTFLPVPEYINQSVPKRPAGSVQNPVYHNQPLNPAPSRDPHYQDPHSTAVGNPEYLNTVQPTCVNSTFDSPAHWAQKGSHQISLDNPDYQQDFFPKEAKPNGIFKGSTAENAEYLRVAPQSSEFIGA
- experiment: MSA (Mobility Shift Assay) kinase activity, EGFR-L858R
- Assay type: biochemical
property.label: IC50 (nM)

Use these answered entries as a reference point.
// lookup IC50 | system=EGFR (L858R) (Homo sapiens, UniProt P00533, L858R) | key= CNC(=O)CC1CN(c2ccc(C(C)C)c3cc(Nc4ccnc(N5CCC(O)C(F)C5)n4)ncc23)C1 (stereo not shown) 20.5

Checklist item: IC50 tested on EGFR (L858R) (Homo sapiens, UniProt P00533, L858R), entry CC(C)c1ccc(N2CC(C[S+](C)[O-])C2)c2cnc(Nc3ccnc(N4CCC(O)C(F)C4)n3)cc12 (stereo not shown) , value? 73.4

A = CC(C)c1ccc(N2CC(CC(N)=O)C2)c2cnc(Nc3ccnc(N4CCC(O)C(F)C4)n3)cc12 (stereo not shown)
B = CC(C)c1ccc(N2CC(NS(C)(=O)=O)C2)c2cnc(Nc3ccnc(N4CCC(O)C(F)(F)C4)n3)cc12 (stereo not shown)
C = CC(C)c1ccc(N2CC3(CC(S(C)(=O)=O)C3)C2)c2cnc(Nc3ccnc(-c4cnn(S(=O)(=O)C5CC5)c4)n3)cc12
D = CC(C)c1ccc(N2CC3(CC(S(C)(=O)=O)C3)C2)c2cnc(Nc3ccnc(N4CCC(O)CC4)n3)cc12
Arrange items by their IC50 values in increasing order. Would you mind listing the labels in the order asked for? B, C, A, D

A = CC(C)c1ccc(N2CC(NS(C)(=O)=O)C2)c2cnc(Nc3ccnc(N4CCC(C)(O)C(F)C4)n3)cc12 (stereo not shown)
B = CC(C)c1ccc(N2CC(CS(C)(=O)=O)C2)c2cnc(Nc3ccnc(N4CCC(O)C(F)C4)n3)cc12 (stereo not shown) [Control A, reference compound]
Which of the two gives a bigger number for IC50: A or B ? API: response body contains the label of the selected item. B
(B: 7.1 nM, A: 2.5 nM)

1 = CC(C)c1ccc(N2CC(CS(C)(=O)=O)C2)c2cnc(Nc3ccnc(-c4cnn(CC(F)(F)F)c4)n3)cc12
2 = CC(C)c1ccc(N2CC(CS(C)(=O)=O)C2)c2cnc(Nc3ccnc(-c4cnn(S(=O)(=O)C5CC5)c4)n3)cc12
3 = CC(C)n1c(=O)cc(N2CC(CS(C)(=O)=O)C2)c2cnc(Nc3ccnc(N4CCC(O)C(F)C4)n3)cc21 (stereo not shown)
Thanks in advance: please rank these 3 entries by IC50, highest to lowest. List the labels, following the order given in the request. 3, 1, 2
(3: 9.5 nM, 1: 5.8 nM, 2: 1.6 nM)
